B1: library; a variant is named by its letters at N, in order (parent)
chain: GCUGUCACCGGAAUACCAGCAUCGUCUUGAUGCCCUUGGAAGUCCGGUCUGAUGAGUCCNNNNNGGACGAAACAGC

variants of: B1; assay: normalized RNA/DNA level without ligand (relative to sTRSVctl = 100) (log10 (% of sTRSVctl)); higher = less ribozyme self-cleavage, higher mRNA level; conditions: HEK293T, reporter: mCherry (pCS4076), ligand present: no
endpoint-name: normalized RNA/DNA level without ligand (log10)

{"columns": ["mutation", "reported-measurement"],
 "data": [
  ["AAAGG", 1.71],
  ["AAGAC", 1.86],
  ["CAUGU", 1.96],
  ["ACAAG", 1.81],
  ["UCCUC", 2.02],
  ["AACGU", 1.79],
  ["AAAUC", 1.9],
  ["ACUCC", 1.96],
  ["AAAUA", 1.62],
  ["GAUUU", 1.78],
  ["AAGGA", 1.43],
  ["UCUGG", 2.01],
  ["UAACU", 1.89],
  ["UCCCG", 2.01],
  ["GAUGU", 1.71],
  ["CACCC", 1.93],
  ["CGAGA", 1.58],
  ["GAUGG", 1.8],
  ["ACCCU", 1.93],
  ["AAUAA", 1.33],
  ["CCGAC", 1.91],
  ["UCAAU", 1.83]
]}
